Data provenance is patent US20140243374A1.

- study.system: T1, γ-secretase (cleavage of APP, Aβ42) (Homo sapiens, UniProt P49768)
- T1 construct: endogenous in cells
- assay.procedure: Aβ (1-42) cellular assay (Aβ ELISA, HEK AP-GL-T1 6 cells)
- test.parameters: cellular Aβ42 ELISA, 24 h compound treatment
measured.quantity: IC50 (nM)

Worked examples, 10 compounds total:
INSERT INTO measurements (compound, u, result_number) VALUES
  ('CC1CCCCC1N(Cc1ccc(C(=O)NC(C)(C)C(=O)O)cc1)S(=O)(=O)c1ccc(Cl)cc1 (stereo not shown)', 'nM', 135),
  ('COC[C@@H](C)NC(=O)c1ccc(CN(C2CCCCC2C)S(=O)(=O)c2ccc(Cl)cc2)cc1 (stereo partly shown) [Example 46]', 'nM', 0.7),
  ('O=C(O)c1ccc(CN(C2CCCCC2)S(=O)(=O)c2ccc(Cl)cc2)c(F)c1F', 'nM', 519),
  ('C[C@H](O)CNC(=O)c1ccc(CN(C2CCCCC2F)S(=O)(=O)c2ccc(Cl)cc2)cc1 (stereo partly shown)', 'nM', 10.4),
  ('N#Cc1ccc(CN(C2CCCC2)S(=O)(=O)c2ccc(Cl)cc2)c(F)c1', 'nM', 301),
  ('CC[C@@H](C1CCCC1)N(Cc1ccc(C(=O)OC)cc1)S(=O)(=O)c1ccc(Cl)cc1', 'nM', 24),
  ('CC1CCCCC1N(Cc1ccc(C(=O)NCCN(C)C)cc1)S(=O)(=O)c1ccc(Cl)cc1 (stereo not shown)', 'nM', 2.56),
  ('COC(=O)c1ccc(CN(C2CCCC(C(F)(F)F)C2)S(=O)(=O)c2ccc(Cl)nc2)cc1 (stereo not shown)', 'nM', 26.8),
  ('CC1CCCCC1N(Cc1ccc(C(=O)NC(C)(C)CO)cc1)S(=O)(=O)c1ccc(Cl)cc1 (stereo not shown)', 'nM', 20.9),
  ('O=C(O)c1ccc(CN([C@@H]2CCCC[C@H]2F)S(=O)(=O)c2ccc(Cl)cc2)cc1', 'nM', 141);

[P] O=C(O)c1ccc(CN(C2CCCC(C(F)(F)F)C2)S(=O)(=O)c2ccc(Cl)cc2)cc1 (stereo not shown) [Example 51]
[Q] O=C(O)c1ccc(CN(C2CCCC(C(F)(F)F)C2)S(=O)(=O)c2ccc(Cl)cc2)cc1 (single isomer, unassigned) [Example 53]
[R] O=C(O)c1ccc(CN(C2CCCCC2(F)F)S(=O)(=O)c2ccc(Cl)cc2)cc1 (stereo not shown)
[S] CC1CCCCC1N(Cc1ccc(C#N)cc1)S(=O)(=O)c1ccc(Cl)cc1 (stereo not shown)
[T] O=C(O)c1ccc(CN(C2CCCCC2C(F)(F)F)S(=O)(=O)c2ccc(Cl)cc2)cc1 (stereo not shown)
Rank descending by IC50. Use the labels to give the ranking in the order requested. Q, R, P, T, S
(Q: 1190 nM, R: 89.9 nM, P: 62.2 nM, T: 25.5 nM, S: 14 nM)

[a] CC1CCCCC1N(Cc1ccc(C(=O)NCCC(=O)O)cc1)S(=O)(=O)c1ccc(Cl)cc1 (stereo not shown)
[b] C[C@@H](CO)NC(=O)c1ccc(CN(C2CCCCC2F)S(=O)(=O)c2ccc(Cl)cc2)cc1 (stereo partly shown)
a or b : whose IC50 is greater? Identify your selection by its label. a
(a: 80.7 nM, b: 35.4 nM)

[P] CC1CCCCC1N(Cc1ccc(C(=O)NCC(F)(F)F)cc1)S(=O)(=O)c1ccc(Cl)cc1 (stereo not shown)
[Q] COC[C@H](C)NC(=O)c1ccc(CN(C2CCCCC2F)S(=O)(=O)c2ccc(Cl)cc2)cc1 (stereo partly shown)
[R] COC(=O)c1ccc(CN([C@@H]2CCCC[C@H]2F)S(=O)(=O)c2ccc(Cl)cc2)cc1
I would appreciate it if you could sort these 3 compounds by IC50, starting from the smallest number. Use the labels to give the ranking in the order requested. P, R, Q
(P: 2.61 nM, R: 44.3 nM, Q: 103 nM)

[P] C[C@@H](CO)NC(=O)c1ccc(CN(C2CCCCC2C(F)(F)F)S(=O)(=O)c2ccc(Cl)cc2)cc1 (stereo partly shown)
[Q] C[C@H](CO)NC(=O)c1ccc(CN(C2CCCC(C(F)(F)F)C2)S(=O)(=O)c2ccc(Cl)nc2)cc1 (stereo partly shown)
Compare reported IC50 values for P and Q . Which is lower? Identify your selection by its label. P
(P: 2.16 nM, Q: 12 nM)

[I] O=C(O)CNC(=O)c1ccc(CN(C2CCCCC2F)S(=O)(=O)c2ccc(Cl)cc2)cc1 (stereo not shown)
[II] O=C(O)c1ccc(CN(C2CCCC(C(F)(F)F)C2)S(=O)(=O)c2ccc(Cl)cc2)cc1 (single isomer, unassigned) [Example 52]
[III] COC(=O)c1ccc(CN(C2CCCC(C(F)(F)F)C2)S(=O)(=O)c2ccc(Cl)cc2)cc1 (stereo not shown)
Rank descending by IC50. Use the labels to give the ranking in the order requested. I, II, III

[A] O=C(NCCN1CCCC1)c1ccc(CN(C2CCCCC2F)S(=O)(=O)c2ccc(Cl)cc2)cc1 (stereo not shown)
[B] CC(=O)CNC(=O)c1ccc(CN(C2CCCCC2C)S(=O)(=O)c2ccc(Cl)cc2)cc1 (stereo not shown)
A or B : whose IC50 is greater? Identify your selection by its label. A

[1] COC(=O)c1ccc(CN(C2CCCCC2F)S(=O)(=O)c2ccc(Cl)nc2)cc1 (stereo not shown)
[2] CC1CCCCC1N(Cc1ccc(C(=O)O)cc1)S(=O)(=O)c1ccc(C(F)(F)F)nc1 (stereo not shown)
1 or 2 : whose IC50 is greater? Identify your selection by its label. 2

[1] O=C(O)c1ccc(CN(C2CCCCC2F)S(=O)(=O)c2ccc(Cl)cc2)c(F)c1F (stereo not shown)
[2] COCC(C)NC(=O)c1ccc(CN(C2CCCCC2F)S(=O)(=O)c2ccc(Cl)cc2)cc1 (stereo not shown)
1 or 2 : whose IC50 is greater? Identify your selection by its label. 1
